A collection of compounds and their measured MIC
Test system: Escherichia coli
measurement notes: Antibacterial activity against Escherichia coli MTCC 51 after 24 hrs
Type: functional
run parameters: MTCC 51, 24 h
measurement label: MIC (µg/mL)

compound | experimental system | test result
O=C(N[C@H](CO)[C@H](O)c1ccc([N+](=O)[O-])cc1)C(Cl)Cl [CHLORAMPHENICOL] | Escherichia coli | 4
Cc1ccc(-c2nnc3cc(C)nc(C)n23)cc1 | Escherichia coli | 16
Cc1cc2nnc(-c3ccc(F)cc3)n2c(C)n1 | Escherichia coli | 32

====

Test system: Geobacillus stearothermophilus
measurement notes: Antibacterial activity against Bacillus stearothermophilus MTCC 8508 at 50 ug/mL by agar well diffusion method
Format: functional
run parameters: read-out: DIZ
zone of inhibition at 50 µg/mL reference

compound | zone of inhibition at 50 µg/mL (mm)
Cc1cc2nnc(-c3cccs3)n2c(C)n1 | 16.7
COc1cc(O)ccc1-c1nnc2cc(C)nc(C)n12 | 46.7
CN[C@@H]1[C@H](O[C@H]2[C@H](O[C@H]3[C@H](O)[C@@H](O)[C@H](N=C(N)N)[C@@H](O)[C@@H]3N=C(N)N)O[C@@H](C)[C@]2(O)C=O)O[C@@H](CO)[C@H](O)[C@H]1O [STREPTOMYCIN] | 49.2
